# Tested on: Plasmodium berghei
# assay: Luciferase/luciferin-expressing antifolate-resistant parasites were used to infect a culture of HepG2 cells that were pre-incubated with compounds. Infected hepatocytes emit light due to the luciferase reaction. Assay results are presented as the percent inhibition of light emission compared to control. […]
# Assay type: functional
# conditionSet: sporozoite, PBLUC_HILL_SLOPE 5.41, PBLUC_R_SQUARED 0.801, read-out: LUCIFERASE INFECTION ASSAY - IC50
endpointName: pIC50
Note: pIC50 values are expressed as the negative base-10 logarithm of concentration in M.

Query: Indicate its recorded pIC50; the compound in question is `CCN(c1ccccc1)S(=O)(=O)c1ccc(Cl)c(NC(=O)Nc2ccc(Cl)cc2C#N)c1`
Reply: 5.33

###

Reported IC90 is given for each of the following compounds.
# Test system: Plasmodium berghei
# assay: Luciferase/luciferin-expressing antifolate-resistant parasites were used to infect a culture of HepG2 cells that were pre-incubated with compounds. Infected hepatocytes emit light due to the luciferase reaction. Assay results are presented as the percent inhibition of light emission compared to control. […]
# Format: functional
# conditionSet: sporozoite, read-out: LUCIFERASE INFECTION ASSAY - IC90

[[record]]
compound = "Cc1ccc2nc(NC(=O)C(C)Oc3ccccc3)c(C(=O)NC3CCCCC3)n2c1 (stereo not given)"
testresult = "> 7.85 µM"

[[record]]
compound = "Cc1cccc(N2CCN(C(=O)c3nn(-c4ccccc4)c(=O)c4ccccc34)CC2)c1C"
testresult = "> 10 µM"


Query: Provide measured IC90 value, entry: `CN(CC(=O)Nc1ccc(Oc2ccccc2)cc1)c1c(N)n(Cc2ccccc2)c(=O)[nH]c1=O`
Reply: > 10 µM

Query: Output measured IC90 for this item: `c1ccc2c(-n3ccnc3)nc(-c3ccsc3)nc2c1`
Reply: 7.73 µM

Query: Please report IC90 for the following compound: `COc1cc(-c2ccc3ncc(-c4cccc(C(C)=O)c4)n3n2)cc(OC)c1OC`
Reply: 1.39 µM

Query: State its IC90 for this compound: `Cn1c(CNC(=O)c2cc(-c3ccccc3)c(N3CCOCC3)s2)nc2ccccc21`
Reply: > 10 µM

###

# Test system: Plasmodium berghei
# assay: Luciferase/luciferin-expressing antifolate-resistant parasites were used to infect a culture of HepG2 cells that were pre-incubated with compounds. Infected hepatocytes emit light due to the luciferase reaction. Assay results are presented as the percent inhibition of light emission compared to control. […]
# Type: functional
# conditionSet: sporozoite, HEPG2TOX_HILL_SLOPE 1.43, HEPG2TOX_R_SQUARED 0.957, PBLUC_HILL_SLOPE 2.41, PBLUC_R_SQUARED 0.455, read-out: LUCIFERASE INFECTION ASSAY - IC50
endpointName: IC50 (nM)
// units = nM; emit number, no label

Query: Report IC50, nothing else, for this compound: `N#C/C(=N\Nc1ccc(OC(F)(F)F)cc1)C(=O)c1ccsc1`
Reply: 2580

###

# System: Plasmodium berghei
# assay: Luciferase/luciferin-expressing antifolate-resistant parasites were used to infect a culture of HepG2 cells that were pre-incubated with compounds. Infected hepatocytes emit light due to the luciferase reaction. Assay results are presented as the percent inhibition of light emission compared to control. […]
# Format: functional
# conditionSet: sporozoite, HEPG2TOX_HILL_SLOPE 3.23, HEPG2TOX_R_SQUARED 0.736, PBLUC_HILL_SLOPE 1.66, PBLUC_R_SQUARED 0.334, read-out: LUCIFERASE INFECTION ASSAY - IC50
endpointName: IC50

Query: Return value of IC50 for input `CCOC(=O)C1=C(COC(=O)c2oc3ccc(OC)cc3c2C)NC(=O)NC1` , no commentary.
Reply: > 10 µM
